# target or system: uterine OT receptors (Rattus norvegicus, UniProt P70536)
# Construct: crude membrane preparation of uteri; from tissue; host or cells: uterus of DES-treated rats, crude membranes
# Sequence (P70536 whole entry): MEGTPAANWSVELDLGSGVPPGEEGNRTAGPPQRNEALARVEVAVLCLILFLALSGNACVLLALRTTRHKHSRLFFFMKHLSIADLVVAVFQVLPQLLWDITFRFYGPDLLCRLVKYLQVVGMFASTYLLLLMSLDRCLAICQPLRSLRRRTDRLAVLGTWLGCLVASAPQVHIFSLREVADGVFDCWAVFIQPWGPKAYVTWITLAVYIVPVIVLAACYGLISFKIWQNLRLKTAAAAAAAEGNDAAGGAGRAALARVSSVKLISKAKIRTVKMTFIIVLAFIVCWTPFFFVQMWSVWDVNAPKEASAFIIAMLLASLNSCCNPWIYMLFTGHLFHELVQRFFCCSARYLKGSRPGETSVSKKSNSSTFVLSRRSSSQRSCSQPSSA
# method summary: Radioligand binding: competition of [^3 H]oxytocin binding to rat uterine membranes
# experimental context: 1 nM [^3 H]OT, rat uterus membranes, 60 minutes, 22° C., pH 7.4; read-out: IC50
IC50 values for the molecules below.

- molecule: "CCOC(=O)CCCN1CCC[C@H]1C(=O)NCC(C)[C@@]1(O)C[C@H]2CC[C@]1(CS(=O)(=O)N1CCN(c3ccccc3C)CC1)C2(C)C (stereo partly shown)"
  target or system: "uterine OT receptors (Rattus norvegicus, UniProt P70536)"
  IC50: "100 nM"
- molecule: "Cc1ccccc1N1CCN(S(=O)(=O)CC23CCC(CC2(O)C(C)CNC(=O)[C@@H]2CCCN2CCC(=O)O)C3(C)C)CC1 (stereo partly shown)"
  target or system: "uterine OT receptors (Rattus norvegicus, UniProt P70536)"
  IC50: "15 nM"
- molecule: "Cc1ccccc1N1CCN(S(=O)(=O)C[C@]23CC[C@H](C[C@]2(O)C(C)CNC(=O)[C@@H]2CCCN2CCCC(=O)O)C3(C)C)CC1 (stereo partly shown)"
  target or system: "uterine OT receptors (Rattus norvegicus, UniProt P70536)"
  IC50: "10 nM"
- molecule: "Cc1ccccc1N1CCN(S(=O)(=O)C[C@]23CC[C@H](C[C@]2(O)C(C)C#N)C3(C)C)CC1 (stereo partly shown)"
  target or system: "uterine OT receptors (Rattus norvegicus, UniProt P70536)"
  IC50: "150 nM"
- molecule: "Cc1ccccc1N1CCN(S(=O)(=O)CC23CCC(CC2N(C)C(=O)[C@H](CCS(C)(=O)=O)N(C)C)C3(C)C)CC1 (stereo partly shown)"
  target or system: "uterine OT receptors (Rattus norvegicus, UniProt P70536)"
  IC50: "110 nM"
- molecule: "CCOC(=O)CN1CCC[C@H]1C(=O)NCC(C)C1(O)CC2CCC1(CS(=O)(=O)N1CCN(c3ccccc3C)CC1)C2(C)C (stereo partly shown)"
  target or system: "uterine OT receptors (Rattus norvegicus, UniProt P70536)"
  IC50: "28 nM"
- molecule: "CCOC(=O)CN1CCCC(C(=O)NCC(C)C2(O)CC3CCC2(CS(=O)(=O)N2CCN(c4ccccc4C)CC2)C3(C)C)C1 (stereo not shown)"
  target or system: "uterine OT receptors (Rattus norvegicus, UniProt P70536)"
  IC50: "38 nM"
- molecule: "Cc1ccccc1N1CCN(S(=O)(=O)C[C@]23CC[C@H](C[C@]2(O)C(C)CN)C3(C)C)CC1 (stereo partly shown)"
  target or system: "uterine OT receptors (Rattus norvegicus, UniProt P70536)"
  IC50: "180 nM"
- molecule: "COC(=O)CCN1CCC[C@H]1C(=O)NCC(C)C1(O)CC2CCC1(CS(=O)(=O)N1CCN(c3ccccc3C)CC1)C2(C)C (stereo partly shown)"
  target or system: "uterine OT receptors (Rattus norvegicus, UniProt P70536)"
  IC50: "20 nM"
- molecule: "Cc1ccccc1N1CCN(S(=O)(=O)CC23CCC(CC2NC(=O)[C@@H](N)CCS(C)(=O)=O)C3(C)C)CC1 (stereo partly shown)"
  target or system: "uterine OT receptors (Rattus norvegicus, UniProt P70536)"
  IC50: "1.2 nM"
- molecule: "Cc1ccccc1N1CCN(S(=O)(=O)CC23CCC(CC2NC(=O)[C@H](CCS(C)(=O)=O)NC(=O)Cc2c[nH]cn2)C3(C)C)CC1 (stereo partly shown)"
  target or system: "uterine OT receptors (Rattus norvegicus, UniProt P70536)"
  IC50: "5.4 nM"
- molecule: "CCOC(=O)CCN1CCCC1C(=O)NC1C(C(=O)N2CCN(c3ccccc3C)CC2)C2CCC1(C)C2(C)C (stereo not shown)"
  target or system: "uterine OT receptors (Rattus norvegicus, UniProt P70536)"
  IC50: "27 nM"
- molecule: "COC(=O)CCN1CCC(C(=O)NCC(C)C2(O)CC3CCC2(CS(=O)(=O)N2CCN(c4ccccc4C)CC2)C3(C)C)CC1 (stereo not shown)"
  target or system: "uterine OT receptors (Rattus norvegicus, UniProt P70536)"
  IC50: "54 nM"
